This section presents molecules with their documented Percent Effect values.
# system tested: Shiga toxin 2 (Escherichia coli O157:H7) (UniProt P09385+P09386)
# experiment notes: E. coli 0.157:H7 Shiga Toxin SOP - stx2 screening assay
# Format: functional
# Parameters: scale not given: direction of the effect not stated beside the values
# condition context: 30 µM
Return type: number; implicit unit %.

Worked cases, answers included:
[
  {
    "molecule": "Cc1nc(C)n(CC2CCCN(Cc3ccc(C(N)=O)cc3)C2)n1 (stereo not drawn)",
    "Percent Effect / %": 20.8
  },
  {
    "molecule": "CC(=O)NCCNC(=O)CN1CCN(Cc2nccn2C)C(C)C1 (stereo not drawn)",
    "Percent Effect / %": 2.09
  },
  {
    "molecule": "Cc1ncsc1C(=O)NCCSCCCO",
    "Percent Effect / %": -35.1
  }
]

Form field: reported Percent Effect of Cc1cc(C)n(C2CCCN(C(=O)c3ccc(NC4CC4)nc3)C2)n1 (stereo not drawn) 27

Form field: reported Percent Effect of CC(C)n1[nH]c(=O)c2c1NC(=O)CC2c1cccnc1 (stereo not drawn) -6.55

Form field: reported Percent Effect of CC(C)(C)c1ncc(C(=O)NCCS(N)(=O)=O)s1 28.8

Form field: reported Percent Effect of CN(C)C(=O)C1CN(Cc2c[nH]cn2)CCN(C2CCOCC2)C1 (stereo not drawn) -8.14

Form field: reported Percent Effect of COc1ccccc1OCCN1CCCC(c2cc(C(N)=O)[nH]n2)C1 (stereo not drawn) 5.34

Form field: reported Percent Effect of CN(C)CCN1C(=O)CCC12CCN(C(=O)c1cccnc1)CC2 -8.32

Form field: reported Percent Effect of O=C(CSc1ncccn1)N1C[C@H]2CC[C@@H]1CN(Cc1ccncc1)C2 -26.2

Form field: reported Percent Effect of Cc1cc(C(=O)N2CCN(C(=O)Cc3ccccn3)CC2)c(C)s1 7.06

Form field: reported Percent Effect of Cn1cnnc1C1CCCN(C(=O)NCc2cc[nH]n2)C1 (stereo not drawn) 12.3

====

This section presents compounds with their documented Percent Effect values.
# system tested: Aspartate--tRNA(Asp/Asn) ligase (Mycobacterium tuberculosis (strain ATCC 25618 / H37Rv)) (UniProt P9WFW3); further: in the data most compounds retested in dose-response had high values
# Sequence (whole entry): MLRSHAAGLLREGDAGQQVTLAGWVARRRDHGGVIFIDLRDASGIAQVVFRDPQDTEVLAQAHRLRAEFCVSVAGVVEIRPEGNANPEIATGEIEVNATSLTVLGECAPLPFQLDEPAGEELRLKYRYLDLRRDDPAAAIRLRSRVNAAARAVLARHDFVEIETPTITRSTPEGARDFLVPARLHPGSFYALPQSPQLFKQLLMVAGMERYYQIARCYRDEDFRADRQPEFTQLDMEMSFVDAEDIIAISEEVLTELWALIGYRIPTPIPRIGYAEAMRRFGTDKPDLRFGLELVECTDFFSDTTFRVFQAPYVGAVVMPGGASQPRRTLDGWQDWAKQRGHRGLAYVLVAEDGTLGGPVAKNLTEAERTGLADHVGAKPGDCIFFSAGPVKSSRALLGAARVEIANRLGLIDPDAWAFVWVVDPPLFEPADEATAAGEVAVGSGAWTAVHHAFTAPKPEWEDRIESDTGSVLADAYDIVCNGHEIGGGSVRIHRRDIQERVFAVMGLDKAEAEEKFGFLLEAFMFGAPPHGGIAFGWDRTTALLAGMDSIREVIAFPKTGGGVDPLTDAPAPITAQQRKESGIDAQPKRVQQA
# experiment notes: Assay for Asp RNA synthetase-1 from Mycobacterium tuberculosis
# Type: functional
# Set-up: scale not given: direction of the effect not stated beside the values
# condition context: 30 µM
Return type: number; implicit unit %.

[
  {
    "compound": "CSc1ncc(C(=O)N2C[C@H]3CC[C@@H]2CN(Cc2ccccc2)C3)cn1",
    "Percent Effect (%)": 1.12
  },
  {
    "compound": "CN(C)C(CNC(=O)c1cccc(-n2cnnn2)c1)c1ccccc1Cl (stereo unspecified)",
    "Percent Effect (%)": 3.08
  },
  {
    "compound": "COc1cccc(OCc2cc(C(=O)NC[C@H]3CCCN3)n[nH]2)c1",
    "Percent Effect (%)": 1
  }
]

Form field: reported Percent Effect of COc1cccc(CN2CCCCCC2c2cccs2)c1O (stereo unspecified) 0.335

Form field: reported Percent Effect of CN(C)[C@H]1CCCCN(C(=O)CCc2csc(N)n2)C1 -1.18

Form field: reported Percent Effect of O=C1CCc2cc(-c3csc(CCN4CCCC4=O)n3)ccc2N1 -0.577

Form field: reported Percent Effect of CCc1cc(C(F)(F)F)c2c(C)nn(CC(=O)O)c2n1 -5.37

Form field: reported Percent Effect of Cc1c(C)n(Cc2ccccn2)c2nc3c(c(N)c12)CCCC3 -2.53

Form field: reported Percent Effect of COc1cccc(CCNS(=O)(=O)c2ccc(NC(C)=O)cc2)c1 -1.32

Form field: reported Percent Effect of O=C(CCc1ccccn1)N1CCN(C(=O)CC2CCCCC2)CC1 -2.28

Form field: reported Percent Effect of Cc1nc(N2CCN(C(=O)c3ccc(O)cc3)CC2)c2cnn(C)c2n1 -1.05

====

This section presents molecules with their documented Percent Effect values.
# system tested: AMP-activated protein kinase, AMPK (Homo sapiens) (UniProt P54646+O43741+P54619+Q9UGJ0+Q9Y478+Q13131+Q9UGI9)
# experiment notes: AMP-dependent Kinase enzyme assay. An in vitro enzyme assay that detects ADP turnover that is directly proportional to AMPK activity. This uses naive AMPK that is activated during the assay with MK-8722
# Assay type: functional
# Parameters: scale not given: direction of the effect not stated beside the values
# condition context: 30 µM
Return type: number; implicit unit %.

[
  {
    "molecule": "c1ccc(CO[C@@H]2CO[C@@]3(CCN(Cc4ccccn4)C3)C2)nc1",
    "Percent Effect [%]": 5.55
  },
  {
    "molecule": "Cc1n[nH]c2c1C(c1ccc(O)c(Cl)c1)SCC(=O)N2 (configuration not stated)",
    "Percent Effect [%]": 21.6
  },
  {
    "molecule": "c1cnc(NC[C@@H]2CCC[C@@H]3CN(Cc4cccnc4)C[C@@H]32)nc1",
    "Percent Effect [%]": -2.93
  },
  {
    "molecule": "CS(=O)(=O)N1CCC(C(=O)N2CCC3(CC2)OCCCO3)CC1",
    "Percent Effect [%]": -4.81
  },
  {
    "molecule": "COc1cc(CNCC(O)c2ccc(C)cc2)cc2c1OCCO2 (configuration not stated)",
    "Percent Effect [%]": 11
  },
  {
    "molecule": "c1cncc(OC[C@]23COC[C@H]2CN(Cc2cccs2)C3)c1",
    "Percent Effect [%]": 0.208
  },
  {
    "molecule": "Cc1noc(C)c1CN1C[C@H](OCC2CC2)[C@H]2OCCC[C@H]21",
    "Percent Effect [%]": -3.37
  },
  {
    "molecule": "Cc1ccc(N2CCO[C@H]3CN(Cc4cnn(C)c4)C[C@H]32)nn1",
    "Percent Effect [%]": 0.154
  }
]

Form field: reported Percent Effect of COCc1cncc2c1CCN(Cc1ccccn1)C2 -2.9

Form field: reported Percent Effect of CN(C)c1ncc2c(n1)C1(CCN(CC3CC3)C1)COC2 (configuration not stated) 0.164

Form field: reported Percent Effect of O=C(C1CCOCC1)N1C[C@H]2CC[C@@H]1CN(Cc1ccncc1)C2 0.59

Form field: reported Percent Effect of COc1ccc(F)cc1C(=O)C1CCCN(Cc2cnc(C)s2)C1 (configuration not stated) 1.8

====

This section presents compounds with their documented Percent Effect values.
# system tested: Shiga toxin 2 (Escherichia coli O157:H7) (UniProt P09385+P09386)
# experiment notes: E. coli 0.157:H7 Shiga Toxin SOP - stx2 screening assay
# Assay type: functional
# Parameters: scale not given: direction of the effect not stated beside the values
# condition context: 30 µM
Return type: number; implicit unit %.

[
  {
    "compound": "CC(C)Oc1cccc(C(=O)C2CCCN(C(=O)c3ccccn3)C2)c1 (stereo unspecified)",
    "unit label": "%",
    "Percent Effect": 6.16
  },
  {
    "compound": "Cc1cc(C)n(CC2CCCCN2C(=O)c2ccc3nncn3c2)n1 (stereo unspecified)",
    "unit label": "%",
    "Percent Effect": 14.5
  },
  {
    "compound": "CC(c1ccc(F)c(F)c1)N1CCN(Cc2nccn2C)CC1 (stereo unspecified)",
    "unit label": "%",
    "Percent Effect": -13.2
  },
  {
    "compound": "CN(C)c1cc2c(nn1)CCN(C(=O)Cc1noc3ccccc13)C2",
    "unit label": "%",
    "Percent Effect": -8.79
  },
  {
    "compound": "COc1cc(CN(C(=O)Nc2cccnc2OC)C2CC2)ccc1O",
    "unit label": "%",
    "Percent Effect": 11.9
  }
]

Form field: reported Percent Effect of Fc1ccc(CN2CCC(c3nccnc3-n3ccnc3)CC2)cc1 -0.684

Form field: reported Percent Effect of O=C(c1cccc(N2CCCC2=O)c1)N1CCCC(n2cncn2)C1 (stereo unspecified) 17.8

Form field: reported Percent Effect of Cc1ccc(CC(=O)N2CCCC(c3nc(C)cs3)C2)cn1 (stereo unspecified) 7.66

Form field: reported Percent Effect of CCn1c(CN2CCN(CC(N)=O)CC2)nc2c(F)cccc21 6.95

Form field: reported Percent Effect of CS(=O)(=O)NCc1cc2n(n1)CCCN(Cc1cccc(C#N)c1)C2 18.6

Form field: reported Percent Effect of Cc1occc1C(=O)N1CCC2(CC1)NC(=O)CC2c1cnn(C)c1 (stereo unspecified) -2.15
